Origin of measurements: paper PMC2850882

Value Type: IC50

The compound O=C(CCCc1ccc(-c2ccccc2F)cc1)Nc1ccc(O)cc1 [CMPD1] on p38 (phosphorylation of ATF2) (Homo sapiens): IC50 was > 400 µM

###

molecular target: p38 (phosphorylation of ATF2 in presence of MK2) (Homo sapiens); assay: ATF2/MK2 dual substrate assay, phospho-ATF2 readout (MSD); details: 0.5 nM p38, 100 nM ATF2, 10 nM MK2, 50 uM ATP; measured at 120 min; ± standard error
Value Type: pIC50
In plain terms, pIC50 is the concentration in mol/L turned into minus its base-10 logarithm.

Please fill in: pIC50 reported for O=C(CCCc1ccc(-c2ccccc2F)cc1)Nc1ccc(O)cc1 = 4.57

###

molecular target: p38 (Homo sapiens, UniProt Q16539)
Value Type: Kd (µM)
State just the number; it will be interpreted in µM.

Please fill in: Kd reported for Nc1ncnc2c1ncn2[C@@H]1O[C@H](COP(=O)(O)OP(=O)(O)OP(=O)(O)O)[C@@H](O)[C@H]1O = 67

###

molecular target: p38 (phosphorylation of MK2 in presence of ATF2) (Homo sapiens, UniProt Q16539); experiment: ATF2/MK2 dual substrate assay, phospho-MK2 readout (MSD); settings: 0.5 nM p38, 100 nM ATF2, 10 nM MK2, 50 uM ATP; measured at 30 min; ± standard error
Sequence (Q16539 whole entry): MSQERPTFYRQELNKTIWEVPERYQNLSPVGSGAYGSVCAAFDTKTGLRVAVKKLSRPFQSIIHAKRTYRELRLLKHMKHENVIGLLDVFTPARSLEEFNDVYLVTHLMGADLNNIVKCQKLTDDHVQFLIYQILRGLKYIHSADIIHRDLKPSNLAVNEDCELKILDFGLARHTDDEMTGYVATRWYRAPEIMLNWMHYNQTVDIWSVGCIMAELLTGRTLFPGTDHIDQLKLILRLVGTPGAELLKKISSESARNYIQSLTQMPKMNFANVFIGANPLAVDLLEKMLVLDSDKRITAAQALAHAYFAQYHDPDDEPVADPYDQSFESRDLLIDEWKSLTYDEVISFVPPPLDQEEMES
Value Type: IC50 (µM)
State just the number; it will be interpreted in µM.

Please fill in: IC50 reported for O=C(CCCc1ccc(-c2ccccc2F)cc1)Nc1ccc(O)cc1 = 41

###

molecular target: p38 (phosphorylation of MK2) (Homo sapiens, UniProt Q16539)
Value Type: pIC50
In plain terms, pIC50 is the concentration in mol/L turned into minus its base-10 logarithm.

The molecule O=C(CCCc1ccc(-c2ccccc2F)cc1)Nc1ccc(O)cc1 on p38 (phosphorylation of MK2) (Homo sapiens, UniProt Q16539): pIC50 was 4.63
